biological target: Androgen receptor (Homo sapiens) (UniProt P10275); assay: qHTS assay to identify small molecule antagonists of the androgen receptor (AR) signaling pathway using the MDA cell line (AID 743042; note: nearly all actives have a fitted effect of over 55% in size); details: MDA-kb2 AR-luc, MMTV luciferase, R1881 antagonist, 16 h; series mostly up to 70.3 µM
Sequence (P10275 whole entry, looked up): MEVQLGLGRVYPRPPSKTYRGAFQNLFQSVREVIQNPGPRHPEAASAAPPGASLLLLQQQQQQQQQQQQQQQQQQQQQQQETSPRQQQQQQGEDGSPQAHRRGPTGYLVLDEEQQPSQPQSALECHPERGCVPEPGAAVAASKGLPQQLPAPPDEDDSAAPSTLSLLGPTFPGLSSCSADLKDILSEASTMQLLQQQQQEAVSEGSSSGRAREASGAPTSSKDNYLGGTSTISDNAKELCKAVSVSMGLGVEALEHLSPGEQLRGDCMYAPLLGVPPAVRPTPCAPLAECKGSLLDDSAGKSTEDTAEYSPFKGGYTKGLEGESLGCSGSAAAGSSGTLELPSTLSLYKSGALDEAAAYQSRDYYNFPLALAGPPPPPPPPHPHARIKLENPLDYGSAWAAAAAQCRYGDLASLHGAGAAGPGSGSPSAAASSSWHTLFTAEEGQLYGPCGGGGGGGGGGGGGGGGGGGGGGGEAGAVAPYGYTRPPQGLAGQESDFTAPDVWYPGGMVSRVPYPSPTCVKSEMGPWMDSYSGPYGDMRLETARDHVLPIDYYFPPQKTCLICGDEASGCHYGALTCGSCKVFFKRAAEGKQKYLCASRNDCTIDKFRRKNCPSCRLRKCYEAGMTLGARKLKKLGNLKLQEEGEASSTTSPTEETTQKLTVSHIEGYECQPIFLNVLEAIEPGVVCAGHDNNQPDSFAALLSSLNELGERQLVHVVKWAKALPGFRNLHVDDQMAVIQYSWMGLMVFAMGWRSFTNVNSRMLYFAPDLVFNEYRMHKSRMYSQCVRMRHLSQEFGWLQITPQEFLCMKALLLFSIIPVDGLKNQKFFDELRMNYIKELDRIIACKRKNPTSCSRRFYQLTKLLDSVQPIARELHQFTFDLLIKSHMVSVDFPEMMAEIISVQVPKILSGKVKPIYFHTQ
Inconclusive results are not listed. Activity calls are given as the source filed them. Calls come from the whole dose curve; as a rule, active = well fitted inhibition curve with a large enough effect in the repeat runs; inconclusive = weak or mixed curves, or effect the other way; inactive = no such curve, though single readings can be large or run the other way.
Could you please pick one outcome from this set? active, inactive

Answer briefly: the call reported for COC(F)(F)C(Cl)Cl in this assay.
inactive

Answer briefly: the call reported for COc1ccc(C2NC(=S)N3C(c4ccc(OC)c(OC)c4)NC(=S)N23)cc1OC (stereo not given) in this assay.
active

Answer briefly: the call reported for O=S(=O)(O)c1cc(O)c2c(N=Nc3ccc(Nc4ccccc4)c4c(S(=O)(=O)O)cccc34)cc(S(=O)(=O)O)cc2c1 in this assay.
active

Continuing:
Answer briefly: the call reported for CCCCCCCCCCCCCCCCCC(=O)OC[C@@H](O)[C@H]1OC[C@H](O)[C@H]1O in this assay.
inactive

Answer briefly: the call reported for OCC(O)COc1ccc(Cl)cc1 (stereo not given) in this assay.
inactive

Answer briefly: the call reported for COc1cc(-c2ccc(-[n+]3nc(-c4ccccc4)nn3-c3ccc([N+](=O)[O-])cc3)c(OC)c2)ccc1-[n+]1nc(-c2ccccc2)nn1-c1ccc([N+](=O)[O-])cc1 in this assay.
active
